- SUBJECT_OF_TEST: hSTING REF allele (Homo sapiens)
- Construct: DNA encoding amino acids 140-379 (amino acid numbering corresponding to Swiss Prot Q86WV6); 6xHIS (N, cleaved yes); SUMO (N, cleaved yes); made in house; host or cells: Rosetta2 (DE3) E. coli
- Sequence (Q86WV6 140-379): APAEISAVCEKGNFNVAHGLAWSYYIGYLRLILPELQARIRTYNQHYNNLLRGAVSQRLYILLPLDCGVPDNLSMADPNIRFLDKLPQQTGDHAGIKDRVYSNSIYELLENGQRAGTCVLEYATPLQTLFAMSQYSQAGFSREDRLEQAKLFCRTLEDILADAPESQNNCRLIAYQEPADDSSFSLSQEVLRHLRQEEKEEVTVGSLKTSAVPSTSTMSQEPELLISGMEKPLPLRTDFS
- METHOD_DESCRIPTION: Differential scanning fluorometry (DSF) binding to purified STING AA140-379, REF allele
- TEST_CONDITIONS: DSF; ligand 1 mM; 1 mg/ml STING AA140-379
PARAMETER: hSTING Tm Shift REF (°C)
Give your result in °C as a bare value.

Some compounds with known hSTING Tm Shift REF results, for comparison:
COMPOUND	UNITS_LABEL	hSTING Tm Shift REF
O=C(Nc1ncnc2c1ncn2[C@@H]1O[C@@H]2CO[P@@](=O)(S)O[C@H]3[C@H]4OC[C@]3(CO[P@](=O)(S)O[C@@H]1[C@@H]2O)O[C@H]4n1cnc2c(NC(=O)c3ccccc3)ncnc21)c1ccccc1 [Compound 11f]	°C	6.5
Nc1nc2c(ncn2[C@@H]2O[C@@]34CO[C@@H]2[C@@H]3O[P@@](=O)(S)OC[C@H]2O[C@@H](n3cnc5c(N)ncnc53)[C@H](O)[C@@H]2O[P@](=O)(S)OC4)c(=O)[nH]1 [Compound 33b]	°C	9.3
Nc1nc2c(ncn2[C@@H]2O[C@@H]3CO[P@](=O)(S)O[C@H]4[C@H]5OC[C@]4(CO[P@@](=O)(S)O[C@H]3[C@H]2O)O[C@H]5n2cnc3c(N)ncnc32)c(=O)[nH]1 [Compound 45b]	°C	7.4
Nc1ncnc2c1ncn2[C@@H]1O[C@@]23CO[C@@H]1[C@@H]2O[P@@](=O)(S)OC[C@@H]1C[C@@H](O[P@](=O)(S)OC3)[C@H](n2cnc3c(N)ncnc32)O1 [Compound 21b]	°C	4.2
Nc1ncnc2c1ncn2[C@@H]1O[C@@H]2CO[P@](=O)(S)O[C@H]3[C@H]4OC[C@]3(CO[P@](=O)(S)O[C@@H]1[C@H]2F)O[C@H]4n1cnc2c(N)ncnc21 [Compound 37d]	°C	−0.3

# get_value(readout= hSTING Tm Shift REF, system= hSTING REF allele (Homo sapiens)) for O=C(Nc1ncnc2c1ncn2[C@@H]1O[C@@]23CO[C@@H]1[C@@H]2O[P@](=O)(S)OC[C@@H]1C[C@@H](O[P@](=O)(S)OC3)[C@H](n2cnc3c(NC(=O)c4ccccc4)ncnc32)O1)c1ccccc1 [Compound 22a]
0.6

Next entry: O=C(Nc1ncnc2c1ncn2[C@@H]1O[C@@H]2CO[P@@](=O)(S)O[C@H]3[C@H]4OC[C@]3(CO[P@@](=O)(S)O[C@@H]1[C@@H]2O)O[C@H]4n1cnc2c(NC(=O)c3ccccc3)ncnc21)c1ccccc1 [Compound 11d]
2.4

Follow-up item: Nc1ncnc2c1ncn2[C@@H]1O[C@@]23CO[C@@H]1[C@@H]2O[P@](=O)(S)OC[C@@H]1C[C@@H](O[P@](=O)(S)OC3)[C@H](n2cnc3c(N)ncnc32)O1 [Compound 21a]
6.2

# iterate: Nc1ncnc2c1ncn2[C@@H]1O[C@@H]2CO[P@](=O)(S)O[C@H]3[C@H]4OC[C@]3(CO[P@@](=O)(S)O[C@@H]1[C@@H]2F)O[C@H]4n1cnc2c(N)ncnc21 [Compound 27b]
7.1

Then this compound: Nc1ncnc2c1ncn2[C@@H]1O[C@@H]2CO[P@](=O)(S)O[C@H]3[C@H]4OC[C@]3(CO[P@@](=O)(S)O[C@@H]1[C@H]2F)O[C@H]4n1cnc2c(N)ncnc21 [Compound 37b]
0.5
